The measurements presented in this section are drawn from patent US20260297022A1.

# experiment: Aqueous kinetic solubility from a solution of 10 mM DMSO in phosphate buffered saline (PBS) at pH 7.4
# Type: physicochemical
# test-context: PBS pH 7.4, 25° C., target concentration 250 μM, 2.5% DMSO, UV quantification at 215 nm, read-out: Kinetic sol. PBS pH 7.4
measurement-kind: solubility kinetic at 24 h (µM)

O=C(O)c1ccc(NCCCCCCCC(F)(F)F)c(S(=O)(=O)N2CCOCC2)c1 [Compound 13] : 244
COc1cc(NCCCCCCCC(F)(F)F)c(S(=O)(=O)N(C)C)cc1C(=O)O [Compound 20] : 188
COCCCCNc1ccc(C(=O)O)cc1S(=O)(=O)N(C)C [Compound 10] : 247
CCCCCCNc1ccc(C(=O)O)cc1S(N)(=O)=O [Compound 2] : 238
CNS(=O)(=O)c1cc(C(=O)O)ccc1NCCCCCCCC(F)(F)F [Compound 18] : 242
CN(C)S(=O)(=O)c1cc(C(=O)O)ccc1NCCCCCC(F)(F)F [Compound 8] : 249
CCCCCCNc1ccc(C(=O)O)cc1S(=O)(=O)NC [Compound 4] : 247
CCCCCCNc1ccc(C(=O)O)cc1S(=O)(=O)N(C)C [Compound 5] : 243
CN(C)S(=O)(=O)c1cc(C(=O)O)c(Cl)cc1NCCCCCCCC(F)(F)F [Compound 16] : 241
COCCNc1ccc(C(=O)O)cc1S(=O)(=O)N(C)C [Compound 9] : 237
O=C(O)c1ccc(NCCCCCCCC(F)(F)F)c(S(=O)(=O)NC2CCCC2)c1 [Compound 12] : 223
O=C(O)c1ccc(NCCCCCCCC(F)(F)F)c(S(=O)(=O)NC2CCOCC2)c1 [Compound 14] : 244
CN(C)S(=O)(=O)c1cc(C(=O)O)ccc1NCCCC(F)(F)F [Compound 7] : 245
